Data provenance: the supplement of paper PMC10567573

B1: CDKL4 (parent)
chain: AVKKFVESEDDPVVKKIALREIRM

Variants of: B1
measurement_description: protein stability index of a GFP-peptide fusion (GPS, HEK-293T) (PSI 1-6); higher = more stable;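 further: lentivirally expressed fusions sorted by FACS into six bins by GFP to DsRed ratio, PSI derived from sequencing read proportions per bin multiplied by bin number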
assay_conditions: c terminus: a fixed tail appended
Label met when protein stability index is at or above 3; otherwise label not met.

* F5R | met
* V13Q | met
* K15F | not met
* I17R | met
* P12V | not met
* K3S | met
* A1G | met
* I17P | met
* K3Y | not met
* V2T | met
* I22F | not met
* E9C | not met
* E7Y | not met
* K3M | not met
* K3E | met
* V14C | met
* R20P | not met
* V2K | met
* V2C | not met
* V14L | not met
* V14H | met
